measurementKind: melting point

>  <smilesNotation>
O=C(/C(=C\c1ccc(I)cc1)S(=O)(=O)Cc1ccc(I)cc1)c1ccc(I)cc1

>  <melting point>
175 to 177 °C

$$$$

Exercise: Endpoint output: melting point of O=C(/C(=C\c1ccc(-c2ccccc2)cc1)S(=O)(=O)Cc1ccc(Cl)cc1)c1ccc(Cl)cc1 . Value?
Key: 65 to 72 °C

Exercise: Endpoint output: melting point of O=C(/C(=C\c1ccc(OCc2ccccc2)cc1)S(=O)(=O)Cc1ccc(Cl)cc1)c1ccc(Cl)cc1 . Value?
Key: 91 to 99 °C

Exercise: Endpoint output: melting point of Cc1ccc(CS(=O)(=O)/C(=C/c2ccc(S(C)(=O)=O)cc2)C(=O)c2ccc(Br)cc2)cc1 . Value?
Key: 110 to 112 °C

Exercise: Endpoint output: melting point of Cc1ccc(/C=C(\C(=O)c2ccc(Cl)cc2)S(=O)(=O)Cc2ccc(Cl)cc2)s1 . Value?
Key: 148 to 152 °C

Exercise: Endpoint output: melting point of Cc1ccc(CS(=O)(=O)/C(=C/c2ccccc2OCc2ccccc2)C(=O)c2ccc(Cl)cc2)cc1 . Value?
Key: 112 to 129 °C

Exercise: Endpoint output: melting point of CCOc1ccc(/C=C(\C(=O)c2ccc(Cl)cc2)S(=O)(=O)Cc2ccccc2Cl)cc1OC . Value?
Key: 123 to 128 °C

Exercise: Endpoint output: melting point of CSc1ccc(/C=C(\C(=O)c2ccc(Cl)cc2)S(=O)(=O)Cc2ccc(Cl)cc2)cc1 . Value?
Key: 94 to 108 °C
